system_name: T1, recombinant PCNA protein (N-terminal (His)6-PCNA) (human, UniProt P12004 1-261)
T1 construct: PCNA, human; amplified by PCR from a template plasmid (Genecoepia) into pEV-L8, which has an N-terminal (His)6-tag and a TEV protease recognition site; No TEV cleavage is described; also called human PCNA; source: E. coli BL21(DE3), purified (Ni-NTA)
protocol_notes: fluorescence polarisation; competition: increasing unlabeled peptide with 50 nM FITC-PL peptide and 1 µM PCNA (monomer concentration); 25 mM HEPES pH 7.4, 10% glycerol, 0.01% Triton X-100; 30 min at room temperature, read at 30°C; Ki from a modified Cheng-Prusoff equation
condition_notes: both partners purified
readout_type: IC50 (µM)
State just the number; it will be interpreted in µM.

**Q:** Item under review: SAVLQKKITDYFHPKK (Synthesised on CLEAR Amide resin, so the C-terminus is probably an amide (surmised); also called control PL peptide; source: synthetic peptide (solid phase, HPLC purified)) [unlabeled POGO-ligase (PL) peptide] . Reported IC50?
**A:** 0.144
